METHOD DESCRIPTION: soluble fraction after stress (log2 fold change); higher = more stays soluble; pooled small domains, quantitative proteomics
REPORTED CONDITIONS: stress: pH 4
// reported soluble fraction (log2) for each item listed
READOUT KIND: soluble fraction (log2)

HMNKEDIASNEKLLGLLNHMSKVLKDIDFIKDDRPMIVRKINHIFKKATLSEEEINILRGVLSAIENHS    -0.104
HMPKNRTDYVQDVLKSLGRPAHYKEITQIINAMLPKEAQYSAKSIQVVLGSSPLFIRVGTGTYALVE    -0.79
HMTKKSLFNQYLDDQKRLDIVTLQKAELVDLHKLADELNIDQYNQLKKNELIFKILQSNPSE    -0.361
HMGLTRRAQLEVADANLKRLYPGMHQSWVTAIAEYLHSSYWRYINSLEPEYAASIQRVYEQHIDAM    -0.0592
HMKQLIGYSVIDIKMGKLGEISFVNSKTAQALIHVSKDGKGFYFPWHKQFVKNIDAEKGIMEVEIPKEFLD    -0.85
HMKDTNENLMKMLALLIHAAKIDENYSDEEKELIVNFAEMSSKENLNREQILSIIKSAEEYE    -0.673

====

METHOD DESCRIPTION: soluble fraction after stress (log2 fold change); higher = more stays soluble; pooled small domains, quantitative proteomics
REPORTED CONDITIONS: stress: pH 4
READOUT KIND: soluble fraction (log2)

HMEPEYIGELEKRIKKLKTHTYSSIDRLMKSISKKYKITTQVLHDDFKNKHNEIPDEWVKQF    0.22
HMHDRRSGKVKWYSDRKGYGFIDLDGGEVFIHRSALIAFGALRLQAEDIITITVRETDRGLVVDQLFGIER    -1.63
HMGAARVTPLYNLRLREGPSTATARLDVVPRGTTLEVRAWDETGDWAQVEYRGQIGWIAAWLAEVEGEAP    -0.739
HMNKFRVGDEVEIVKLDKTIQHFGGEEVLSPVGTKTYITYVDVTGKEIEIDKDIYSYHADDLTLV    -1.76
HMIEEIPYSQFMSMLEEGKIDKAEIYQDSIIFSTKPDEQGKAGYYSIAYMKDNVLADRLYDAGVEFTPII    -1.4
HMKPLAQQVNDYLAATRTSIATLANEIPGYSRPTISRYLAGKYDGDITTIEKLLAEWLAQRTG    -0.581
HMKTMTTIRKGSRGDTVATLQRKLNLIADGIFGPITDEAVRDFQKSHGLAVDGIVGPKTWAALGVGS    0.354
HMQQEPNFYIVDGNTNQIVDRYYAPDSNVAHQYLGQWRQQHDPQETGNYRYGRLSSETEERYRNLAA    0.188
HMIPYSDLLKLLSNDAMPKFRNKDGWAKIHALETYLASRWSYQEYGFASFTVLLETVHNAEIRNDSVRLM    -0.0131
HMSLTYTGKFILNHNNIDQSSFNINIYLVNKQTIIQITKPFYGNVLNIKFNEENDLIISPKQFS    -0.9
HMLDYKSALQELLQAQRRSRPRYEVISTEGPDHERVFEVAVWLDNEELGRGKGRSKREAEHQAAQAALTQL    -0.626
HMEAIYKKNKNLIHTVIRDNFPFLIDTADYEDAFQEGSIGLIRAIDRFDDGLEYKFSSYAYTAIRNQIA    -0.165

====

// reported soluble fraction (log2) for each item listed
METHOD DESCRIPTION: soluble fraction after stress (log2 fold change); higher = more stays soluble; pooled small domains, quantitative proteomics
REPORTED CONDITIONS: stress: pH 4
READOUT KIND: soluble fraction (log2)

HMKVPDVQYMNKDSAIEALTANELKYTIVEAENENVAAGVVISQSVERDSQVAPGTSVELVVSTG    -0.741
HMKYKKYKLLKDLPTFKAGQLAYISKTGNLIAGTPENQKTTETGLIIMIYHETTLKKFPNILTEWFEEIE    -1.17
HMSIYDAPIEDLKFSTRIFNSLKRADIHTVADLIAHSRDDLMKVRNLGATSLDELIEKLGTHGLQLADP    -0.356
HMTTQVNTVKIQLANGYEMTVLTSKTNVKEILEDNNIILENNEKVTPNIDEEISSNKTIKITDKSN    -0.0659
HMADWTETELAALRRAYASGTTRVSYDGKSVDYGSAEDLLSRIRTLQGAASDVAADAVAAVDA    -0.153

====

METHOD DESCRIPTION: soluble fraction after stress (log2 fold change); higher = more stays soluble; pooled small domains, quantitative proteomics
REPORTED CONDITIONS: stress: pH 4
Think of -0.4 as a floor: if soluble fraction (log2) stands on it or above, it is satisfied; beneath it, not satisfied.

HMGIILDWELFEQFADKLKRKKVDFVIEPYLRFEGRRGEQSTLFIKDPSGNYLEFKAFKNIDMLFEK    not satisfied
HMKYSYAELTKLQEQIAQDRNAPLTVPNALGIGLDERNNVIEITVNIADEAAAKAYYLQKYGDRISLKTTD    satisfied
HMGYQLSLEAQSQLKALGLTSEYITRILDEADNRQPIPGTSRTVYSLNGYQVEFSHSDQQVIRIARG    satisfied
HMTVSLTDVPFVPEILDRLERPELDVLLAILNGATNTFDLAAKTGRSRDELDEVLDRLTTLGLIER    not satisfied
HMGQPAVSSRDVAEQFGKEHRNVIQSIKNLIAENSALTFMFIEDTYTAGTGKKYPMYYMNRDGFTLLA    satisfied
HMRTITYSITPAHAGMSVERYLKQQHGYSTRTLVKLKHYPQGLQLNGQHARTVDLLQAGDTLAVTFLD    satisfied
HMGIEQVELASRVRDAVDSLPHHLREIILLSYFQKMSYNQIAETLQVPLGTVKSRLHAAVASFAQAWTQSS    not satisfied
HMDNIEIGNRIREIRIKKNISVFELAYRTKTSQSHIYQIEGGSQNMSIELLFKIADTLETDPNTILGV    not satisfied
HMIVDARNREINLGSHVRYVDTGTVGEVTDSKVENDASWVKIDKTNLWYLANKLELLNDEDFKT    not satisfied
HMQADPYTVLGVLRDVTDGELKREYRKLVREHHPDALIAQGVPQEFVDIANNKLAVINAAYERIAKQRGL    satisfied
HMGYTLDVAHGVTEDMNFSEAFATAREEVGPGGIFYWHGKPYGTYYENEWNAMDEEDKAEYWDAVGRTTA    not satisfied
HMKGKDLQDAVVTVVGGAENWNAIRAWAQASASDSEKREINAAFQSGKLMATMMAERLALAYQQSG    satisfied
HMQYTQKTMYINDSYVNLRKSASTSSDIIMVVELNTKLTVIGEDGDWYKVKTSSGNAYVLKTLLSNEKKET    satisfied
HMDVPNLVGEEIKDVRRTLRHFQLEVIGEGSKIVSQVPKHGQRLPENTTIRVYLN    satisfied
HMRSIVETLTDRELEIFQLIGNGFSTGEIARRLNLSPHTIETHRKNIKDKLGLSSGSELNKQAIQWVLSS    not satisfied
HMAVNQEFKNTINRIKYEYSLNQSQIADRLGVKKTYLSDMINGRVPYNETMNKKVNDVFPLPP    satisfied
HMVKEVKVPDVEGLTTEEAIKELKKYGLAYTTKSEENTDIEEGKVIRTEPKKGSTKVKGSTVTIIESSG    satisfied
HMIKVAANESNRSDVLEIVRLFRVRVVDVNPESLTIEATGAEGKIDALLGLLEHYGVIELVRSGAVAVT    not satisfied
HMTNELTEIFNSIRLTKKQKELLQSNYLSLRETYFLQGKTAFNLKFKNIAGLGKSTKKVLLEFFEESIE    not satisfied
HMNPLLSAYLAEVERGLQGLTAGRRRLVLRELEAHLLDEAEARGLLTEEDMRALLMEKEPPERLAQEIAQ    not satisfied
HMKKLTGVQKAAILMIALGPDISSSIIKRLPENMVERITYEIANMTKITAQQRNDILKEFMDMTVAQ    not satisfied
HMSPSSPNQILGQYPKTKNDIILSSGRYGPYLKYNKKNYSLGNNISVEKLSLEEAVKIIDLKDKK    satisfied
HMTLREQISALIKQGKLTQAKLARETGVNGGALSAWINGKYTGNVETVEEPIKHWMALNERK    satisfied
HMINITALVKQLGGVDISKFNSAFKLLQQGKPLNTISNKVMADTFVALMKNSDEALNTKFRAAFKKI    satisfied

====

METHOD DESCRIPTION: soluble fraction after stress (log2 fold change); higher = more stays soluble; pooled small domains, quantitative proteomics
REPORTED CONDITIONS: stress: pH 4
// reported soluble fraction (log2) for each item listed
READOUT KIND: soluble fraction (log2)

HMVDITPDLIRTLLERFGEYGVTKEHIEARIQRHIESILPAQVVQLRKTYNSLKDGMSQPSDWFDI    -1.43
HMGKNISEEDMLGYFKKIDLDYDAETKEVIAPTFRHDLFRLADLAEEVARFFGYDNIPTTLPSGEAT    -0.488
HMHLPDNAVSIISELKMTPEEVLELIGKLPHDFLFLPYSQRKKIIVDLIPNKDYKLLMSLIKKFML    -0.536
HMSSGTAYATDAVNVRSGPGTSYTVLGYLSRGEKVTITGTVSNGWTQIQLPGNRLGYVSSAYLSASYPS    -0.115
HMESPVNTLPEDQRAWYKALPPELSTKTAVEAGAGVGVSERTVKRLLSNQTFFINLQRGNYRKRH    0.314
HMSEQLKQIAERIKELRNIAGLGEEELAAKLDIPVDTYREYESGNVDIPVSFLYKISGMFNVELTAIL    -1.05
HMGAVGISQKVTSLETAVLGKNFAKDPLIDRVARLEQTVLPKQAEANASLSLPERVSKLLEKVPIAAG    0.136
HMPGGLSAEDVEKMVEKVLTVNGDVVEEIRSGRDPKGKKIKFLAGLVMRDARGQADAAAVSGILERRLKEG    0.371
HMPDLKIGKDHRLAEYIETKIAEDGYSPGAVLGEIKAKGLEFETEISKPTLYSYIDKGIFLTITNKELPV    0.0942
HMSVLPAREQVAAILRQAILLRKFKEGQDLTLKDAAELVGSSITPVREAFQILENEGLIELRPNKGAVVL    -0.616
HMMVIMRANATEPQIANVVAYVEKNGLNAHLSRGAERTVIGVVGDIRRVSKETFELMDGVDSVMRIS    -0.734
HMTTIAQNISNYRTRANMTQQQVADKLSVSHHTVSKWELGINTPSVEDMQKLAQVFGVTITELVVD    -0.662
HMKAEKEIEKIKFTIYNEFKRKQEENHFLPPWDGTKMLRQFVLGVVANNPKYQHVNTDILYRDLLLLYYQ    -0.166
HMIDAHTTLLAKRLESKGFLALTDKSSAEEIYEEFGISKKAFKKALGALYKERLVRIGEDGVVWM    -0.721
HMTAGTGIAYSEFRSKVQEGQVKDVAIAPDRITGTLSSGQKFSTVPVNDPGLPKMLDDFNVKYSGQA    0.22
HMDDVIEVEGKVVEVLPNTKFIVELANSHKITAHISGKLRMNYIRIMKGDNVTVEMSPYDLTKGRIIWRS    -0.167
HMSNRDNPVVLDFKKVKSTEQLDNILEEYIRENFEGYTVKGRMFSSDEGKFIIALALKDDDGKRALVYFDV    -1.06
HMKLVAAGYHQNRLLVLLGIQAEELQAKRLLASFDRFRGREATPKPPIHDSARRWLRDTYHHVMNQVPVEL    -0.432
HMNMENIADKIGKIYESLPEDLKLMIKYRDIDDLTYDEIAVKADLPVGTVRSRLHRAREQLLKELEKN    -0.0554
HMETAESLLRRLIMLEDPAMQNAMYVLAVMLERGKQLVERAAKPHESGGILRVYEHKKSGDTFVVLDPR    -1.05
HMHEYSDIEHRILDAAREVFIRKGYDSATMGDIALLAGMSRTSVNYYFRNKERLFEAIFEEII    -1.25
HMAHSDEAWSVARRVARELDKILDGAGPRRTALVRAAAELRLSTRQIYNLLARYRADRTVTSLLPRR    -0.353
HMVSIGSQVAKRRRELRLTQQNLAEKMGVSFQAISSWEREEFLPDINKLQKLAAILNTKISYLLEE    -0.538
HMPVLDETVPAALDGERIDRVVALLADVSRNRAGIAIAAGSVRLDGAVVTQRSRKVRADEELVVDGLER    -0.00165
HMSYTWHDMYLLAQEYQKEHGNLIIPRNYKGKNGLNLGYWLYKEKLKYRQGKLAPEKIIALEHIGIVWT    0.22
HMPEVAHTIDMEAVNKHWDELPEREQRILVMRFYGNLTQTEIGERLGISQMHVSRLLARALSHLKSRLLD    -0.046
